Kindly supply the reported log10 of IC50 values for the records listed here.
target.system: Recombinant human VAP-1 SSAO (Homo sapiens)
Sequence (Q16853 whole entry): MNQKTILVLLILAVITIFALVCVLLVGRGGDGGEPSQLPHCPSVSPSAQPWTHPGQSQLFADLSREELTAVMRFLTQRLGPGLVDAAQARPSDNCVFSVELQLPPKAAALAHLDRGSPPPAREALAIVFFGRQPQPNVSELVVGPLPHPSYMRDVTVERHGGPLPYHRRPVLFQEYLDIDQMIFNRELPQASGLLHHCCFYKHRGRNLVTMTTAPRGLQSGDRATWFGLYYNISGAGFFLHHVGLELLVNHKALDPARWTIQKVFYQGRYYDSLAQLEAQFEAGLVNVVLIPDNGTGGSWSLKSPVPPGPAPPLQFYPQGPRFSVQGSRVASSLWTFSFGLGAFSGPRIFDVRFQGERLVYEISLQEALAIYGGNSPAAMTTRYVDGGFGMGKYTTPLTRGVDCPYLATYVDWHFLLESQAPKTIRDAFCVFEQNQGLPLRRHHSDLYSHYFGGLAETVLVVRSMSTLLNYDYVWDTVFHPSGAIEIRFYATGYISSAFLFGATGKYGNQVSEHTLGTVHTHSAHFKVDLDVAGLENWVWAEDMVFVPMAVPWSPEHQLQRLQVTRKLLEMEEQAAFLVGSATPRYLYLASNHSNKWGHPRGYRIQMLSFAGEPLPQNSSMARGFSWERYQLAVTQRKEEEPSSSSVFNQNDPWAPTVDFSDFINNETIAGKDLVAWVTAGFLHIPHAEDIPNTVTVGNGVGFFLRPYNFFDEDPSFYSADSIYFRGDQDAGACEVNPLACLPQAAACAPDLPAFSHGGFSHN
assay.remarks: In vitro inhibition of VAP-1 SSAO activity (coupled colourimetric method)
Format: biochemical
protocol.conditions: lysate of CHO cells expressing recombinant human VAP-1 SSAO; 1 mM benzylamine; 1 h at 37° C.; read-out: VAP-1 SSAO inhibitory activity IC50
Would you kindly interpret these values as log10 of IC50 expressed in nM?

// log10 of IC50 (Recombinant human VAP-1 SSAO (Homo sapiens)) for COc1ccc(C(CN(C)N)OC)cc1 (racemic) [Compound 37] = 2.62

// molecule CCCN(N)C(C)C(O)c1ccccc1 (racemic) [Compound 14] , assay Recombinant human VAP-1 SSAO (Homo sapiens), log10 of IC50 value: 5.11

# log10 of IC50 measured on Recombinant human VAP-1 SSAO (Homo sapiens) for item CC(C(O)c1ccccc1)N(N)Cc1ccccc1 (racemic) [Compound 16] = 3.60

The molecule COc1cccc(C(CN(C)N)OC)c1 (stereo not shown) [Compound 7] , when measured on Recombinant human VAP-1 SSAO (Homo sapiens), yielded log10 of IC50 of 2.61

Noted log10 of IC50 for COc1cccc(C(O)CN(C)N)c1 (racemic) [Compound 34] , tested on Recombinant human VAP-1 SSAO (Homo sapiens): 2.45

Record for COc1ccc(C(O)CNN)cc1 (racemic) [Compound 36] under target or system Recombinant human VAP-1 SSAO (Homo sapiens): log10 of IC50 reported as 1.23

Record CC(C)CN(N)CC(O)c1ccccc1 (racemic) [Compound 24] ; system Recombinant human VAP-1 SSAO (Homo sapiens); log10 of IC50 = 2.54

I looked up CCN(N)[C@@H](C)[C@H](O)c1ccccc1 (racemic) [Compound 13] and its log10 of IC50 for Recombinant human VAP-1 SSAO (Homo sapiens) was 3.18

Tested system Recombinant human VAP-1 SSAO (Homo sapiens); log10 of IC50 recorded for CCC[C@@H]([C@H](O)c1ccccc1)N(C)N (racemic) [Compound 23] was 2.41

Measured on Recombinant human VAP-1 SSAO (Homo sapiens), NNCC(O)c1ccccc1 (single isomer, unassigned) [Compound 50] has a documented log10 of IC50 of 1.54

Tested on Recombinant human VAP-1 SSAO (Homo sapiens): CN(N)CC(O)c1ccc(Cl)cc1 (racemic) [Compound 30] . Observed log10 of IC50: 2.49

Entry CN(N)[C@H](c1ccccc1)C(O)c1ccccc1 (stereo in doubt) [Compound 5] : log10 of IC50 on Recombinant human VAP-1 SSAO (Homo sapiens) = 2.61

The value of log10 of IC50 recorded for C[C@@H]([C@H](O)c1ccccc1)N(N)Cc1ccccc1 (racemic) [Compound 17] when tested on Recombinant human VAP-1 SSAO (Homo sapiens) reads 4.53

Record CN(N)CC(O)c1ccccc1Cl (racemic) [Compound 29] / Recombinant human VAP-1 SSAO (Homo sapiens), log10 of IC50 recorded as 2.43

Case C[C@@H]([C@H](O)c1ccccc1)N(N)CC1CC1 (racemic) [Compound 15] , Recombinant human VAP-1 SSAO (Homo sapiens), log10 of IC50 recorded as 3.14

Form field, log10 of IC50 with Recombinant human VAP-1 SSAO (Homo sapiens), item CN(N)[C@@H]1CCCC[C@]1(O)c1ccccc1 (racemic) [Compound 43] : 2.72

Observed log10 of IC50 on Recombinant human VAP-1 SSAO (Homo sapiens), entry CCC[C@@H](NN)[C@@H](O)c1ccccc1 (racemic) [Compound 22] , equals 3.08

// log10 of IC50 (Recombinant human VAP-1 SSAO (Homo sapiens)) for COc1cc2c(cc1OC)C(CCO)N(N)CC2 (racemic) [Compound 45] = 3.91
